B1: DYRK1B (parent)
chain: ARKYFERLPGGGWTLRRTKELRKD

Variants of: B1
Experiment: protein stability index of a GFP-peptide fusion (GPS, HEK-293T) (PSI 1-6); higher = more stable;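 note: lentivirally expressed fusions sorted by FACS into six bins by GFP to DsRed ratio, PSI derived from sequencing read proportions per bin multiplied by bin number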
Details: c terminus: a fixed tail appended
Label fulfilled when protein stability index is at or above 3; otherwise label not fulfilled.

Asked: Threshold query (protein stability index >= 3) on "W13E"
Given back: fulfilled
